# Protocol: NCI Yeast Anticancer Drug Screen. Data for the bub3 strain (AID 167)
# Applied Conditions: S. cerevisiae bub3 mutant strain, at 50.0 µM (retest, dose inferred, filed as 5.0)
# Experimental: Growth inhibition of yeast strains with defined genetic alterations is measured as a screen for potential anti-cancer activity. Selected strains with alterations in DNA damage repair or cell cycle control were exposed to compounds and growth inhibition was measured relative to vehicle treated controls. The strain used in this assay is bub3
The panel holds about 79,000 compounds, 15% with a hit somewhere; the sample as a whole holds those more often. The source made the active and inactive calls. Cut-off read from the data, not from the text of the source: active = growth inhibition above about 70%; inactive = the rest.
One label from this list, please: 1.0 (active), 0.0 (inactive)

For N#CC(C#N)=Cc1cc(Cl)ccc1O , which call appears in the assay record?
0.0

For CC(C)C(=O)CP(=O)(O)O , which call appears in the assay record?
0.0

For O=C(OCc1ccccc1)C(C(Cl)c1ccccc1)N(Cc1ccccc1)Cc1ccccc1 (stereo not given) , which call appears in the assay record?
0.0

For CC1(C)N=C(N)N=C(N)N1c1cccc(N)c1.[Sn] , which call appears in the assay record?
0.0

For FC(F)(F)C1(C(F)(F)F)O[Te]2(OC1(C(F)(F)F)C(F)(F)F)OC(C(F)(F)F)(C(F)(F)F)C(C(F)(F)F)(C(F)(F)F)O2 , which call appears in the assay record?
1.0

For Cn1c2cccc(=O)c-2nc2ccccc21 , which call appears in the assay record?
0.0

For C=CCN1C(=O)NC(=O)/C(=C/c2c3ccccc3cc3ccccc23)C1=O , which call appears in the assay record?
1.0

For O=C1C2CC(Cl)C(SSC3CC4C(=O)N(SC(Cl)(Cl)C(Cl)Cl)C(=O)C4CC3Cl)CC2C(=O)N1SC(Cl)(Cl)C(Cl)Cl (stereo not given) , which call appears in the assay record?
1.0

For C1CC[CH]([Sn]([CH]2CCCCC2)[CH]2CCCCC2)CC1.C1CC[CH]([Sn]([CH]2CCCCC2)[CH]2CCCCC2)CC1 , which call appears in the assay record?
0.0

For CCCCN1C(=O)C2C(C1=O)C1(Cl)C(Cl)=C(Cl)C2(Cl)C1(Cl)Cl (stereo not given) , which call appears in the assay record?
1.0

###

# Protocol: NCI Yeast Anticancer Drug Screen. Data for the sgs1 mgt1 strain (AID 161);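 note: 0% = growth of cultures given vehicle only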
# Applied Conditions: S. cerevisiae sgs1 mgt1 strain, at 50.0 µM (retest, dose inferred, filed as 5.0)
About 79,000 compounds went through this panel and 15% of them were active in at least one assay; those are over-represented in the sample as a whole. Activity calls are given as the source filed them. No stated cut-off is given here; in the data, active means growth inhibition above about 70%; inactive means the rest.
One label from this list, please: active, inactive

For NP(N)(=O)Nc1ccccc1 , which call appears in the assay record?
inactive

For COC(COC(=O)N1CCN(C=O)CC1)C1=C(N2CC2)C(=O)C(C)=C(N2CC2)C1=O (configuration not stated) , which call appears in the assay record?
inactive

For CC(Br)c1ccccc1 (configuration not stated) , which call appears in the assay record?
inactive

For Cc1cn(CC2C=CC(CS[As](C)C)O2)c(=O)[nH]c1=O (configuration not stated) , which call appears in the assay record?
active

For Oc1c(Cl)cc(-c2cc(Cl)c(O)c(Cl)c2)cc1Cl , which call appears in the assay record?
active

For C=C(C)C1(CCCC)C(=O)NC(=S)NC1=O , which call appears in the assay record?
inactive

For [O-][n+]1c2cccc(O)c2[n+]([O-])c2cccc(O)c21 , which call appears in the assay record?
active

For COC1(OC)C(Cl)=C(Cl)C(Cl)=C1Cl , which call appears in the assay record?
active

For CCOc1c(Br)cc(/C=C/[N+](=O)[O-])cc1OC , which call appears in the assay record?
active

For CCN1CCC(O)(c2ccc(Cl)c(Cl)c2)C(C(=O)c2ccc(Cl)c(Cl)c2)C1 (configuration not stated) , which call appears in the assay record?
active

For O=C(CI)c1ccc[nH]1 , which call appears in the assay record?
active

For ClC1=C(Cl)C2(Cl)C(C3CO3)CC1(Cl)C2(Cl)Cl (configuration not stated) , which call appears in the assay record?
inactive

###

# Protocol: NCI Yeast Anticancer Drug Screen. Data for the rad50 strain (AID 155);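 note: 0% = growth of vehicle-only cultures of the same strain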
# Applied Conditions: S. cerevisiae rad50 strain growth inhibition; at 50.0 µM (retest, dose inferred, filed as 5.0)
About 79,000 compounds went through this panel and 15% of them were active in at least one assay; those are over-represented in the sample as a whole. The source made the active and inactive calls. No stated cut-off is given here; in the data, active means growth inhibition above about 70%; inactive means the rest.
One label from this list, please: Y = active, N = inactive

For O=C1N[C@@H]2C(=C[C@H](O)[C@@H](O)[C@H]2O)c2cc3c(c(O)c21)OCO3 , which call appears in the assay record?
Y

For C/C(=N\NS(=O)(=O)c1ccc(C)cc1)C(CN1CCOCC1)C(c1ccccc1)c1c(O)c2ccccc2oc1=O (stereo not drawn) , which call appears in the assay record?
N

For O=C(c1ccccc1)c1c(CC(O)c2ccncc2)n(C(=O)c2ccccc2)c2ccccc12 (stereo not drawn) , which call appears in the assay record?
Y

For C[CH2][Pb]([CH2]C)([CH2]C)[n]1cnc2ccccc21 , which call appears in the assay record?
Y

For CC(=O)[CH-]C(=O)c1ccccc1.CC(=O)[CH-]C(=O)c1ccccc1.C[C@]12CCC(=O)C=C1CC[C@@H]1C2CC[C@@]2(C)C1CC[C@]2(C)[O-].C[C@]12CCC(=O)C=C1CC[C@@H]1C2CC[C@@]2(C)C1CC[C@]2(C)[O-].Cl.[Ti+4] (stereo partly drawn) , which call appears in the assay record?
Y

For CC(=O)OC1CCC2(C)C(CCC3C4=CCC(C5=CC(=O)OC5)C4(C)CCC32)C1 (stereo not drawn) , which call appears in the assay record?
N

For CCCCC1CCCCCCc2[nH]c(/C=C3\N=C(c4ccc[nH]4)C=C3OC)cc21 (stereo not drawn) , which call appears in the assay record?
Y

For O=C(O)C1C2C=CC(C2)C1c1ccccc1 (stereo not drawn) , which call appears in the assay record?
N

###

# Protocol: NCI Yeast Anticancer Drug Screen. Data for the mec2-1 strain (AID 157)
# Applied Conditions: S. cerevisiae mec2-1 strain, at 50.0 µM (retest, dose inferred, filed as 5.0), active compounds read high
About 79,000 compounds went through this panel and 15% of them were active in at least one assay; those are over-represented in the sample as a whole.
Mark NOT MET for growth inhibition values under 50%, and MET for everything at or above.

Item [Cl][Hg][Cl] with growth inhibition of 50% or above?
MET

Item O=C(c1ccccc1)C1C(c2ccccc2[N+](=O)[O-])N1C1CCCCC1 (centres undefined) with growth inhibition of 50% or above?
MET

Item [N-]=[N+]=C1C(Cl)=C(Cl)C(Cl)=C1Cl with growth inhibition of 50% or above?
MET

Item [Br][Hg][CH2]COC[CH2][Hg][Br] with growth inhibition of 50% or above?
MET

Item CCCCCCCCCCCC[As](=O)(O)O with growth inhibition of 50% or above?
NOT MET

Item CC#N.FC(F)(F)C#CC(F)(F)F.FC(F)(F)C#CC(F)(F)F.FC(F)(F)C#CC(F)(F)F.[W] with growth inhibition of 50% or above?
MET

Item CCC(=O)O[C@H]1CC[C@H]2[C@@H]3CCC4=C/C(=N/OC(=O)c5cccc6c(=O)c7ccccc7[nH]c56)CC[C@]4(C)[C@H]3CC[C@]12C with growth inhibition of 50% or above?
NOT MET

Item O=S(=O)([O-])[O-].[OH3+].[OH3+].[OH3+].[Ru+2].c1ccccc1 with growth inhibition of 50% or above?
NOT MET

Item COc1ccc2c(c1O)C13CCN(C)C(C2)C12C=CC(=O)C3c1c(O)ccc(O)c12 (centres undefined) with growth inhibition of 50% or above?
MET

Item CC12CCC(O)CC1=CCC1C2CCC2(C)C(NC(=O)C3CCCN3C(=O)CN(CCCl)CCCl)CCC12 (centres undefined) with growth inhibition of 50% or above?
NOT MET

Item CC(=O)C(Br)C(C)=O.CC(=O)C(Br)C(C)=O.CC(=O)C(Br)C(C)=O.[Rh] with growth inhibition of 50% or above?
NOT MET

Item O=c1[nH]cc(Cn2cnc3ncccc3c2=O)c(=O)[nH]1 with growth inhibition of 50% or above?
NOT MET

Item C/C(=N\NS(=O)(=O)c1ccc(C)cc1)C(CN1CCOCC1)C(c1ccccc1)c1c(O)c2ccccc2oc1=O (centres undefined) with growth inhibition of 50% or above?
NOT MET

Item COc1cc[c]([Sb]([Br])([CH]=C(C)C)([CH]=C(C)C)[CH]=C(C)C)cc1 with growth inhibition of 50% or above?
MET

Item CNCC(O)c1ccc(O)c(O)c1.[Pt].c1ccc([PH+](c2ccccc2)c2ccccc2)cc1.c1ccc([PH+](c2ccccc2)c2ccccc2)cc1 with growth inhibition of 50% or above?
MET

Item CC[N+](C)(CC)CCNC(=O)C(O)(c1ccccc1)c1ccccc1 with growth inhibition of 50% or above?
MET

Item C1CN([PH+](N2CC2)N2CC2)CCO1.C1CN([PH+](N2CC2)N2CC2)CCO1.[I][Pt][I] with growth inhibition of 50% or above?
NOT MET

Item O=C1C(=O)c2ccccc2-c2ccccc21.O=C1C(=O)c2ccccc2-c2ccccc21.[Hg] with growth inhibition of 50% or above?
MET

Item N#C[SH2+].N#C[SH2+].N#C[SH2+].N#C[SH2+].[Cu+2].c1ccc(C[P+](c2ccccc2)(c2ccccc2)c2ccccc2)cc1 with growth inhibition of 50% or above?
MET
